- PROTOCOL NOTES: Thermal stability test
- Type: physicochemical
- APPLIED CONDITIONS: Condition (1): closed state, 60° C.
PARAMETER MEASURED: stability (in words)

{"MOLECULE": "CC1=C(C(=O)OC(C)C)C(c2cccc([N+](=O)[O-])c2)C(C(=O)OC2CN(C(c3ccccc3)c3ccccc3)C2)=C(N)N1.O=C(O)CC(O)(CC(=O)O)C(=O)O (single isomer, unassigned)", "PARAMETER MEASURED": "stability (in words)", "VALUE OBSERVED": "equal in stability"}
{"MOLECULE": "CC1=C(C(=O)OC(C)C)C(c2cccc([N+](=O)[O-])c2)C(C(=O)OC2CN(C(c3ccccc3)c3ccccc3)C2)=C(N)N1.Cl.Cl (centres unmarked) [Comparative Example 1, reference compound]", "PARAMETER MEASURED": "stability (in words)", "VALUE OBSERVED": "extremely low stability"}
{"MOLECULE": "CC1=C(C(=O)OC(C)C)C(c2cccc([N+](=O)[O-])c2)C(C(=O)OC2CN(C(c3ccccc3)c3ccccc3)C2)=C(N)N1.Cl.Cl (centres unmarked) [Comparative Example 2, reference compound]", "PARAMETER MEASURED": "stability (in words)", "VALUE OBSERVED": "extremely low stability"}
{"MOLECULE": "CC1=C(C(=O)OC(C)C)C(c2cccc([N+](=O)[O-])c2)C(C(=O)OC2CN(C(c3ccccc3)c3ccccc3)C2)=C(N)N1.O=S(=O)(O)c1ccccc1.O=S(=O)(O)c1ccccc1 (centres unmarked)", "PARAMETER MEASURED": "stability (in words)", "VALUE OBSERVED": "equal in stability"}

----------
Reported Residual rate of Compound (I) values for the following compounds.
- PROTOCOL NOTES: Thermal stability test
- Assay type: physicochemical
- APPLIED CONDITIONS: Condition (1): closed state, 60° C.; time 6 months

{"COMPOUND": "CC1=C(C(=O)OC(C)C)C(c2cccc([N+](=O)[O-])c2)C(C(=O)OC2CN(C(c3ccccc3)c3ccccc3)C2)=C(N)N1.O=S(=O)(O)O (stereo not shown) [Comparative Example 3, reference compound]", "Residual rate of Compound (I)": "92.8%"}

Sure, the documented Residual rate of Compound (I) for Br.Br.CC1=C(C(=O)OC(C)C)C(c2cccc([N+](=O)[O-])c2)C(C(=O)OC2CN(C(c3ccccc3)c3ccccc3)C2)=C(N)N1 (single isomer, unassigned) is 99.6%

Sure, the documented Residual rate of Compound (I) for CC1=C(C(=O)OC(C)C)C(c2cccc([N+](=O)[O-])c2)C(C(=O)OC2CN(C(c3ccccc3)c3ccccc3)C2)=C(N)N1.Cc1ccc(S(=O)(=O)O)cc1.Cc1ccc(S(=O)(=O)O)cc1 (stereo not shown) is 97.3%

Sure, the documented Residual rate of Compound (I) for CC1=C(C(=O)OC(C)C)C(c2cccc([N+](=O)[O-])c2)C(C(=O)OC2CN(C(c3ccccc3)c3ccccc3)C2)=C(N)N1.O=S(=O)(O)c1ccccc1.O=S(=O)(O)c1ccccc1 (stereo not shown) is 93.3%
